The following substances are listed with their measured paerug9027 (MIC) values.
Test system: Pseudomonas aeruginosa ATCC 9027
Assay: Antimicrobial assay I, MIC by OD measurement
Assay type: cell-based
Conditions: 37° C. for 24 hours, absorbance 620 nm
No end group written: not given here.
Just the number in µg/mL, nothing appended.

VAKKLAKLAKKLAKLAL-NH2 [P50]; 15
FALALKALKK-NH2 [P169]; 100

The reported value for FALKALKK-NH2 [P145] in terms of paerug9027 (MIC) is 100

The reported value for FAKALAKLAKKLL-NH2 [P92] in terms of paerug9027 (MIC) is 5

The reported value for FALALKLAKKL-NH2 [P178] in terms of paerug9027 (MIC) is 100

The reported value for FAKKLLAKALKL-NH2 [P110] in terms of paerug9027 (MIC) is 200

The reported value for FAKLLAKLAKKVL-NH2 [P124] in terms of paerug9027 (MIC) is 100

The reported value for FAKKLAKKLAKLL-NH2 [P75] in terms of paerug9027 (MIC) is 5

The reported value for FAKLLAKALKLKL-NH2 [P101] in terms of paerug9027 (MIC) is 25

The reported value for FAKLLAKLAKKSL-NH2 [P127] in terms of paerug9027 (MIC) is 25

The reported value for KAKLAKKALAKLL-NH2 [P149] in terms of paerug9027 (MIC) is 100

The reported value for VAKLLAKLAKKLL-NH2 [P48] in terms of paerug9027 (MIC) is 5

The reported value for FALALKLAKKAL-NH2 [P167, FALALKLAKKAL-NH2] in terms of paerug9027 (MIC) is 25

The reported value for FAKLLAKALKKAL-NH2 [P102, FAKLLAKALKKAL-NH2] in terms of paerug9027 (MIC) is 10

The reported value for KWKLAKKALALL-NH2 [P142] in terms of paerug9027 (MIC) is 50

The reported value for FAKIIAKIAKIAKKIL-NH2 [P139] in terms of paerug9027 (MIC) is 25

The reported value for KWKLFKKALKKLKKALKKAL-NH2 [P104] in terms of paerug9027 (MIC) is 10

The reported value for FAKLLAKAFKKAL-NH2 [P114, FAKLLAKAFKKAL-NH2] in terms of paerug9027 (MIC) is 15

The reported value for VAKLLAKLAKKVL-NH2 [P154] in terms of paerug9027 (MIC) is 100

----------
Experiment: Synergy of Shiva-1 and lysozyme, percent viability;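 also: Lysozyme at ten times the molar concentration of the peptide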
Type: cell-based, Staphylococcus intermedius
Details: S. intermedius 19930
Description: The percent viability of gram positive S. intermedius 19930, S. intermedius 20034, and S. aureus was determined relative to blank controls.
No end group written: not given here.
The following substances are listed with their measured viability at 10 µM values.
Just the number in %, nothing appended.

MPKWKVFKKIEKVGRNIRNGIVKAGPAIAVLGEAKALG-NH2 (C-terminus assumed) [SB-37]; 5.6

// moving on: another record for viability at 10 µM
The reported value for MPRWRLFRRIDRVGKQIKQGILRAGPAIALVGDARAVG [Shiva-1] in terms of viability at 10 µM is 1.2
